Experiment: Half life in rat at 3 mg/kg, iv
Type: ADME, organism-based
Details: in vivo
resultType: half-life (h)
Give just the numeric value; h need not be written.

Could you tell me which half-life is on file for CC1(C)NC(=O)N(C[C@@H](COc2ccc(-c3ccc(OC(F)(F)F)cc3)cc2)N(O)C=O)C1=O ? 8

###

Target: UniProt:P03956
Sequence (P03956 whole entry): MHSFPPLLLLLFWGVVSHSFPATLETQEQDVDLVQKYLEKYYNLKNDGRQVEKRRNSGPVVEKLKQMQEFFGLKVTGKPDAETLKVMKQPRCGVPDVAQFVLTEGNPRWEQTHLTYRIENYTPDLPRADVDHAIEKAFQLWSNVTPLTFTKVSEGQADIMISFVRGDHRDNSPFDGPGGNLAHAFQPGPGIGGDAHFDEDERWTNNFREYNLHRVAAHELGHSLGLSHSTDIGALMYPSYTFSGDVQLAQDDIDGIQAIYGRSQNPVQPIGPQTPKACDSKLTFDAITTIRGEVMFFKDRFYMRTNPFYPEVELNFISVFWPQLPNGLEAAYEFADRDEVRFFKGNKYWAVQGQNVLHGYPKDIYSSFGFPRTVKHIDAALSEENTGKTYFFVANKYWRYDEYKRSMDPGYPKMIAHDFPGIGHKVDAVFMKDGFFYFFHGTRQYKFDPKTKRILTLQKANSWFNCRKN
Experiment: Inhibition of MMP-1 (unknown origin)
Overview of reported IC50 across a group of molecules:

Sample records with IC50:
• COc1ccc(-c2cn(-c3ccc(S(=O)(=O)C4(C(=O)NO)CCOCC4)cc3)nn2)cc1 = > 1000 nM
• C=CC[C@H](C(=O)NO)C(CC(C)C)C(=O)N[C@@H](Cc1ccccc1)C(=O)NC (some centres undefined) = 10 nM
• CC(C)ON([C@@H](CCNC(=O)OCc1ccccc1)C(=O)NO)S(=O)(=O)c1ccc(-c2ccccc2)cc1 = > 3000 nM

Shifting focus to the molecule that follows.
Could you tell me which IC50 is on file for C[C@H]1c2cccc(O)c2C(=O)C2=C(O)[C@]3(O)C(=O)C(C(N)=O)=C(O)[C@@H](N(C)C)[C@@H]3[C@@H](O)[C@@H]21 [DOXYCYCLINE] ? > 400000 nM

###

Target: 72 kDa type IV collagenase (Homo sapiens)
Sequence (P08253 whole entry): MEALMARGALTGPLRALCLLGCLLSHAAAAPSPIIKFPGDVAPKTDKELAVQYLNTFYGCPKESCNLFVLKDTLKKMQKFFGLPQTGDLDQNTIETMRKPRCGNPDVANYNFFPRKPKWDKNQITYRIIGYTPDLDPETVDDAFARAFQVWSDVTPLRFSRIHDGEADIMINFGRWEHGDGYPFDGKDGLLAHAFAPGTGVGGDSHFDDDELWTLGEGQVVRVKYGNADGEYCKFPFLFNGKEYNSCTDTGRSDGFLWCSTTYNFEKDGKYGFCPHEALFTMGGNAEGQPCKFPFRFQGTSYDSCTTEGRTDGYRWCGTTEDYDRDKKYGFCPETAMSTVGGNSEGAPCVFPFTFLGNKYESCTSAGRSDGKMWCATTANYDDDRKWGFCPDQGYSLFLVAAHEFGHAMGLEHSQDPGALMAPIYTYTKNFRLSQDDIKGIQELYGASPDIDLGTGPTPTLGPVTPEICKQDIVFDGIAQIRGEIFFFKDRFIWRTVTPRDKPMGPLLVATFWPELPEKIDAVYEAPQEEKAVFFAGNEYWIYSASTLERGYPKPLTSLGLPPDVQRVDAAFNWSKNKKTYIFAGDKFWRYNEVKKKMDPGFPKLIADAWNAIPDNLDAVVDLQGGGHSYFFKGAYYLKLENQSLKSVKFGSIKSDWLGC
Test: Inhibition of recombinant human MMP-2 for 3 hrs using colorimetric substrate by ELISA
resultType: IC50

Could you tell me which IC50 is on file for CC(C)CNC(=O)P(=O)(O)O ? > 100 µM

###

Molecular target: Matrilysin (Homo sapiens)
Sequence (P09237 whole entry): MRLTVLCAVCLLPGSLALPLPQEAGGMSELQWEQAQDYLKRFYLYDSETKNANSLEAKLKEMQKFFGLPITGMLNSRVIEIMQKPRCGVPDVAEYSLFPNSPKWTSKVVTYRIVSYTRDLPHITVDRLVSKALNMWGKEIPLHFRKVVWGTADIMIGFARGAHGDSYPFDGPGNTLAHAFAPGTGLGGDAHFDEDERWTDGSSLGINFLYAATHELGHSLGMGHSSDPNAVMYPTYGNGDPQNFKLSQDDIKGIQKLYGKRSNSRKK
Assay: Inhibition of human MMP-7 expressed in Escherichia coli BL21(DE3) using Mca-Pro-Leu-Gly-Leu-Dpa-Ala-Arg-NH2 as substrate preincubated for 30 mins followed by susbstrate addition by photon-counter spectrophotometer analysis
resultType: Ki (nM)
Give just the numeric value; nM need not be written.

Sample records with Ki:
- NC(=O)[C@H](CCC(=O)O)NC(=O)[C@@H](CCC(=O)O)NC(=O)CCc1cc(-c2ccc(-c3cccc(Cl)c3)cc2)no1: 1200
- NC(=O)[C@H](CCC(=O)O)NC(=O)[C@@H](CCC(=O)O)NC(=O)CCc1ccc(-c2ccccc2)cc1: 24700

Lab note: need Ki for NC(=O)[C@@H](CCC(=O)O)NC(=O)[C@@H](CCC(=O)O)NC(=O)[C@@H](Cc1cc(-c2ccc(-c3cccc(Cl)c3)cc2)no1)CP(=O)(O)c1ccc(Br)cc1 on Matrilysin (Homo sapiens), anyone have it? 626

###

Molecular target: Neutrophil collagenase (Homo sapiens, UniProt P22894)
Sequence (P22894 whole entry): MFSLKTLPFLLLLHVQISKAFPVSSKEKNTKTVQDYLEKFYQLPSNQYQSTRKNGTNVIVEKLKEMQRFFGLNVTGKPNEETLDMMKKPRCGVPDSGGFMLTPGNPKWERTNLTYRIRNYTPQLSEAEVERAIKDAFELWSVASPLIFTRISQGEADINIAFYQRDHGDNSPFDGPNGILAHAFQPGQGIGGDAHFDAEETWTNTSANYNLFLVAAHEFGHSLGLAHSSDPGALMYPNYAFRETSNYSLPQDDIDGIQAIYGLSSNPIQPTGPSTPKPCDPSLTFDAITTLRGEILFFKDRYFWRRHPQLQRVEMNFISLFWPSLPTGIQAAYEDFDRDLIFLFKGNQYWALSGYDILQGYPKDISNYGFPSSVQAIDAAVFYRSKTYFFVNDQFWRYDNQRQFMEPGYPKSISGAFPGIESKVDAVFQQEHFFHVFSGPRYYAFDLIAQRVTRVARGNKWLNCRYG
Assay: Inhibition of human MMP-8 expressed in Escherichia coli BL21(DE3) using Mca-Pro-Leu-Gly-Leu-Dpa-Ala-Arg-NH2 as substrate preincubated for 30 mins followed by susbstrate addition by photon-counter spectrophotometer analysis
Overview of reported Ki across a group of compounds:
Give just the numeric value; µM need not be written.

Sample records with Ki:
- NC(=O)[C@H](CCC(=O)O)NC(=O)[C@@H](CCC(=O)O)NC(=O)CCc1ccc(-c2ccccc2)cc1: 0.226
- NC(=O)[C@@H](CCC(=O)O)NC(=O)[C@@H](CCC(=O)O)NC(=O)[C@@H](Cc1cc(-c2ccc(-c3cccc(Cl)c3)cc2)no1)CP(=O)(O)c1ccc(Br)cc1: 0.271

Shifting focus to the compound that follows.
Could you tell me which Ki is on file for NC(=O)[C@H](CCC(=O)O)NC(=O)[C@@H](CCC(=O)O)NC(=O)CCc1cc(-c2ccc(-c3cccc(Cl)c3)cc2)no1 ? 0.181

###

Experiment: Oral bioavailability in dog at 3 mg/kg
Assay type: ADME, organism-based, Canis lupus familiaris
Conditions: in vivo
resultType: bioavailability (%)
Give just the numeric value; % need not be written.

Could you tell me which bioavailability is on file for CC1(C)NC(=O)N(C[C@@H](COc2ccc(-c3ccc(OC(F)(F)F)cc3)cc2)N(O)C=O)C1=O ? 84

###

Tested on: HT-1080
Experiment: Inhibition of cell invasion in human HT-1080 cells for 24 hrs by Calcein AM staining based fluorometric analysis
Type: functional
Conditions: HT-1080, 24 h
resultType: IC50 (µM)
Give just the numeric value; µM need not be written.

• C[C@H]1c2cccc(O)c2C(=O)C2=C(O)[C@]3(O)C(=O)C(C(N)=O)=C(O)[C@@H](N(C)C)[C@@H]3[C@@H](O)[C@@H]21 = 21.4

Shifting focus to the molecule that follows.
Could you tell me which IC50 is on file for COc1ccccc1Nc1nc(-c2sc(NC(C)=O)nc2C)cs1 ? 1

###

Overview of reported AUC across a group of compounds:
Experiment: AUC in Sprague-Dawley rats at 33 mg/kg, sc
Type: ADME, organism-based
Parameters: dose 33 mg/kg, route sc
Conditions: rat, in vivo
Give just the numeric value; ng·h/mL need not be written.

- O=C(NCCCCCNS(=O)(=O)c1ccc(Oc2ccccc2)cc1)P(=O)(O)O: 78000

Shifting focus to the compound that follows.
Could you tell me which AUC is on file for O=C(NCCCCCCNS(=O)(=O)c1ccc(Oc2ccccc2)cc1)P(=O)(O)O ? 50500

###

Target: Neutrophil collagenase (Homo sapiens, UniProt P22894)
Test: Inhibition of recombinant human MMP-8 for 3 hrs using colorimetric substrate by ELISA
Overview of reported IC50 across a group of compounds:
Phrase the answer as number then unit, nothing more needed.

- CC(C)CNC(=O)P(=O)(O)O: 1000 nM

Lab note: need IC50 for O=C(NC1CCC1)P(=O)(O)O on Neutrophil collagenase (Homo sapiens, UniProt P22894), anyone have it? 4 nM

###

Target: Neutrophil collagenase (Homo sapiens, UniProt P22894)
Assay: Inhibition of MMP-8 (unknown origin) using Mca-Pro-Leu-Gly-Leu-Dpa-Ala-Arg-NH2 as substrate preincubated for 30 mins followed by substrate addition for 2 to 4 hrs by fluorimetric assay
resultType: IC50
Phrase the answer as number then unit, nothing more needed.

Could you tell me which IC50 is on file for O=P(O)(O)C(NS(=O)(=O)c1ccc(-c2ccc(Cl)cc2)cc1)P(=O)(O)O ? 320 nM

###

Molecular target: Stromelysin-1 (Homo sapiens, UniProt P08254)
Sequence (P08254 whole entry): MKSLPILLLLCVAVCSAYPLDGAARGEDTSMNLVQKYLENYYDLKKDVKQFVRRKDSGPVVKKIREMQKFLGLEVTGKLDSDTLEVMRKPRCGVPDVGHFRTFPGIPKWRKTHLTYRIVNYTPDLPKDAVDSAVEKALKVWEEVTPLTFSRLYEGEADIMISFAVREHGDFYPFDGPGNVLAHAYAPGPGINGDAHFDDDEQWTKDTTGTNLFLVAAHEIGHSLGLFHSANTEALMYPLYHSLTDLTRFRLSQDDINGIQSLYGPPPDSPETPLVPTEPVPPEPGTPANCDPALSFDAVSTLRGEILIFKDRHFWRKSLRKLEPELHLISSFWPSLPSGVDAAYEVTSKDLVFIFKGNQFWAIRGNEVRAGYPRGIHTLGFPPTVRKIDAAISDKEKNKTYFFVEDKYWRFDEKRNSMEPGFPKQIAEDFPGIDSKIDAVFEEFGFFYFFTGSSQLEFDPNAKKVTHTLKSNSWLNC
Experiment: Inhibition of recombinant human MMP-3 using peptide substrate by ELISA
resultType: IC50

Lab note: need IC50 for NC1CCCCC1NC(=O)P(=O)(O)O (stereo unspecified) on Stromelysin-1 (Homo sapiens, UniProt P08254), anyone have it? > 100 nM

###

Target: Neutrophil collagenase (Homo sapiens, UniProt P22894)
Experiment: Inhibition of human MMP-8 using Mca-Pro-Leu-Gly-Leu-Dpa-Ala-Arg-NH2 as substrate preincubated for 1 hr followed by susbstrate addition by fluorescent analysis
pIC50: −log10 of the molar value.
resultType: pIC50

Could you tell me which pIC50 is on file for Cc1cc(=O)c(O)c(C(=O)NCc2ccc(-c3ccc(-c4ccccc4)cc3)cc2)o1 ? < 5.70

###

Biological target: Matrix metalloproteinase-9 (Homo sapiens, UniProt P14780)
Sequence (P14780 whole entry): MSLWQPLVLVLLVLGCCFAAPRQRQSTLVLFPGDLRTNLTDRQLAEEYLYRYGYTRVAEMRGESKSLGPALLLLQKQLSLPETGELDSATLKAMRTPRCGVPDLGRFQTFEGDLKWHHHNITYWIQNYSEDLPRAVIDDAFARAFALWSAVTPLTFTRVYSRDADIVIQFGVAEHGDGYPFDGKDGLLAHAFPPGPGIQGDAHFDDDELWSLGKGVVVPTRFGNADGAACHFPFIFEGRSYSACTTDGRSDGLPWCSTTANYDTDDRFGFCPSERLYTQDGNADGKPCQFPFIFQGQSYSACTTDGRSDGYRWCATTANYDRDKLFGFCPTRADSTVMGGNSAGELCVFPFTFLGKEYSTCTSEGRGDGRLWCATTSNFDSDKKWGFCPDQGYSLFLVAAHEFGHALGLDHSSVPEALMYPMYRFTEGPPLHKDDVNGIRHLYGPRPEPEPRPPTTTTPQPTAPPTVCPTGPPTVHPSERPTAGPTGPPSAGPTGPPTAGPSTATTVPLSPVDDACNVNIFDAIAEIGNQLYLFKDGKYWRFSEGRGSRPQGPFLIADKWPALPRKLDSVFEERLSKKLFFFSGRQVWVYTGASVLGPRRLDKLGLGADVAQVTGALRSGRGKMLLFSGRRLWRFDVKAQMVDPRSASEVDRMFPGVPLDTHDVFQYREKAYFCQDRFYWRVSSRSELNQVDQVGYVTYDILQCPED
Assay: Inhibition of human MMP-9 expressed in Escherichia coli BL21(DE3) using Mca-Pro-Leu-Gly-Leu-Dpa-Ala-Arg-NH2 as substrate preincubated for 30 mins followed by susbstrate addition by photon-counter spectrophotometer analysis
Overview of reported Ki across a group of compounds:
Give just the numeric value; nM need not be written.

Sample records with Ki:
* NC(=O)[C@H](CCC(=O)O)NC(=O)[C@@H](CCC(=O)O)NC(=O)CCc1cc(-c2ccc(-c3cccc(Cl)c3)cc2)no1 | 565
* NC(=O)[C@@H](CCC(=O)O)NC(=O)[C@@H](CCC(=O)O)NC(=O)[C@@H](Cc1cc(-c2ccc(-c3cccc(Cl)c3)cc2)no1)CP(=O)(O)c1ccc(Br)cc1 | 1260

Shifting focus to the compound that follows.
Could you tell me which Ki is on file for NC(=O)[C@H](CCC(=O)O)NC(=O)[C@@H](CCC(=O)O)NC(=O)CCc1ccc(-c2ccccc2)cc1 ? 1090

###

Molecular target: Collagenase 3 (Homo sapiens)
Experiment: Inhibition of human MMP-13 expressed in Escherichia coli BL21(DE3) using Mca-Pro-Leu-Gly-Leu-Dpa-Ala-Arg-NH2 as substrate preincubated for 30 mins followed by susbstrate addition by photon-counter spectrophotometer analysis
resultType: pKi
Bear in mind: pKi is minus log10 of a mol/L concentration; give just that figure.

* NC(=O)[C@@H](CCC(=O)O)NC(=O)[C@@H](CCC(=O)O)NC(=O)[C@@H](Cc1cc(-c2ccc(-c3cccc(Cl)c3)cc2)no1)CP(=O)(O)c1ccc(Br)cc1 | 7.31
* NC(=O)[C@H](CCC(=O)O)NC(=O)[C@@H](CCC(=O)O)NC(=O)CCc1ccc(-c2ccccc2)cc1 | 6.16

Shifting focus to the molecule that follows.
Could you tell me which pKi is on file for NC(=O)[C@H](CCC(=O)O)NC(=O)[C@@H](CCC(=O)O)NC(=O)CCc1cc(-c2ccc(-c3cccc(Cl)c3)cc2)no1 ? 7.40

src = ChEMBL document CHEMBL5113513
